# Test system: HBV rcDNA
# protocol: HepDE19 assay with bDNA quantitation of HBV rcDNA
# Type: cell-based, hepatitis B virus
# condition: Hepatitis B virus, HepDE19, HepDE19 assay, inhibition of formation of rcDNA; read-out: DE-19bDNA EC50
Mark each entry 1 (yes) if its EC50 sits below 2000 nM, and 0 (no) for all others.

Known results for compounds:
Data request: Consider Cc1cc(NC(=O)N(CC(F)F)[C@H](C)c2c[nH]c(=O)c3ccccc23)ccc1F [Compound 97] . Does its EC50 lie strictly below 2000 nM?
Data returned: 1 (yes)

Data request: Consider CC(c1c[nH]c(=O)c2ccccc12)N(CCC#N)C(=O)Nc1ccc(F)c(Cl)c1 (racemic) [Compound 103] . Does its EC50 lie strictly below 2000 nM?
Data returned: 1 (yes)

Data request: Consider CC(c1c[nH]c(=O)c2ccccc12)N(CCCN)C(=O)Nc1ccc(F)c(Cl)c1 (single isomer, unassigned) [Compound 164] . Does its EC50 lie strictly below 2000 nM?
Data returned: 0 (no)

Data request: Consider COCCN(Cc1cnc(OC)c2ccccc12)C(=O)Nc1ccc(F)c(Cl)c1 [Compound 41] . Does its EC50 lie strictly below 2000 nM?
Data returned: 0 (no)

Data request: Consider CC(c1c[nH]c(=O)c2cnccc12)N(CCCO)C(=O)Nc1ccc(F)c(Cl)c1 (stereo not shown) [Compound 159] . Does its EC50 lie strictly below 2000 nM?
Data returned: 1 (yes)

Data request: Consider CCOc1ncc(CN(CC)C(=O)Nc2ccc(F)c(Cl)c2)c2ccccc12 [Compound 17] . Does its EC50 lie strictly below 2000 nM?
Data returned: 1 (yes)

Read the next record carefully.
Data request: Consider [2H]C([2H])([2H])C([2H])([2H])N(C(=O)Nc1ccc(F)c(Cl)c1)[C@H](C)c1c[nH]c(=O)c2ccccc12 [Compound 99] . Does its EC50 lie strictly below 2000 nM?
Data returned: 1 (yes)

---

Hi there, I'd appreciate the recorded pEC50 for every entry that follows.
# System: HBV rcDNA
# protocol: HepDE19 assay with bDNA quantitation of HBV rcDNA
# Type: cell-based, hepatitis B virus
# condition: HepDE19 assay, inhibition of formation of relaxed circular DNA (rcDNA), bDNA quantitation; read-out: DE-19bDNA EC50
Answers are plain numbers, as −log10 of the molar value.

Consider the reported pEC50 for these molecules:
Data request: Return value of pEC50 for input CC(c1c[nH]c(=O)c2ccc(F)cc12)N(CC(CO)CO)C(=O)Nc1ccc(F)c(Cl)c1 (single isomer, unassigned) [Compound 296] , no commentary.
Data returned: 7.40

Data request: Return value of pEC50 for input CC(c1c[nH]c(=O)c2c(F)c(F)ccc12)N(C)C(=O)Nc1cc(F)c(F)c(F)c1 (single isomer, unassigned) [Compound 443] , no commentary.
Data returned: 7.40

Report pEC50 for every entry below.
1. CC(c1c[nH]c(=O)c2cc(F)c(F)cc12)N(C)C(=O)NCc1cc(F)c(F)c(F)c1 (single isomer, unassigned) [Compound 481]
2. CC(C)CN(C(=O)Nc1ccc(F)c(Cl)c1)C(C)c1c[nH]c(=O)c2c(F)c(F)ccc12 (single isomer, unassigned) [Compound 339]
3. CC(c1c[nH]c(=O)c2c(F)c(F)ccc12)N(C)C(=O)Nc1ccc(F)c(C(F)F)c1 (single isomer, unassigned) [Compound 504]
4. CC(c1c[nH]c(=O)c2cc(F)c(F)cc12)N(C)C(=O)Nc1ccc2cc[nH]c2c1 (single isomer, unassigned) [Compound 486]

Data returned:
1: 6.28; 2: 8.30; 3: 7.82; 4: 6.70

---

# System: HBV rcDNA
# protocol: HepDE19 assay with bDNA quantitation of HBV rcDNA
# Format: cell-based, hepatitis B virus
# condition: Hepatitis B virus, HepDE19, HepDE19 assay, inhibition of formation of rcDNA; read-out: DE-19bDNA EC50
# From the text: HepDE19 Assay with bDNA Quantitation of HBV rcDNA: HepDE19 cell culture system is a HepG2 (human hepatocarcinoma) derived cell line that supports HBV DNA replication and cccDNA formation in a tetracycline (Tet)-regulated manner and produces HBV rcDNA and a detectable reporter molecule dependent on the production and maintenance of cccDNA (Guo, et al., 2007, J. Virol. 81:12472-12484). […]
Mark each entry yes if its EC50 sits below 200 nM, and no for all others.

Data request: Consider C[C@H](c1c[nH]c(=O)c2ccccc12)N(C)C(=O)Nc1ccc(F)cc1 [Compound 90] . Does its EC50 lie strictly below 200 nM?
Data returned: no

Data request: Consider CC(c1cn(CCCO)c(=O)c2ccccc12)N(C)C(=O)Nc1ccc(F)c(Cl)c1 (single isomer, unassigned) [Compound 206] . Does its EC50 lie strictly below 200 nM?
Data returned: no

Data request: Consider CCCN(Cc1c[nH]c(=O)c2ccccc12)C(=O)Nc1ccc(F)c(Cl)c1 [Compound 28] . Does its EC50 lie strictly below 200 nM?
Data returned: yes

Data request: Consider O=C(NCc1c[nH]c(=O)c2ccccc12)Nc1ccc(F)c(Cl)c1 [Compound 8] . Does its EC50 lie strictly below 200 nM?
Data returned: no

Data request: Consider CCN(C(=O)Nc1ccc(F)c(Cl)c1)C(C)c1c[nH]c(=O)c2cnccc12 (racemic) [Compound 102] . Does its EC50 lie strictly below 200 nM?
Data returned: yes

Data request: Consider CC(c1c[nH]c(=O)c2nccnc12)N(C)C(=O)Nc1ccc(F)c(Cl)c1 (racemic) [Compound 148] . Does its EC50 lie strictly below 200 nM?
Data returned: no

Data request: Consider CC(c1c[nH]c(=O)c2ccccc12)N(C[C@H]1CC[C@H](O)CC1)C(=O)Nc1ccc(F)c(Cl)c1 (mixture of isomers) [Compound 221] . Does its EC50 lie strictly below 200 nM?
Data returned: no

---

# Test system: HBV rcDNA
# protocol: HepDE19 assay with bDNA quantitation of HBV rcDNA
# Type: cell-based, hepatitis B virus
# condition: HepDE19 assay, inhibition of formation of relaxed circular DNA (rcDNA), bDNA quantitation; read-out: DE-19bDNA EC50
reported.property: EC50

Data request: Return value of EC50 for input CC(c1c[nH]c(=O)c2ccccc12)N(Cc1ccncn1)C(=O)Nc1ccc(F)c(Cl)c1 (single isomer, unassigned) [Compound 322] , no commentary.
Data returned: 350 nM

Data request: Return value of EC50 for input CCN(C(=O)Nc1ccc(F)cc1)C(C)c1c[nH]c(=O)c2cc(F)c(F)cc12 (single isomer, unassigned) [Compound 403] , no commentary.
Data returned: 28 nM

Data request: Return value of EC50 for input CC(c1c[nH]c(=O)c2c(F)cccc12)N(CCCO)C(=O)Nc1ccc(F)c(Cl)c1 (single isomer, unassigned) [Compound 366] , no commentary.
Data returned: 11000 nM

Report EC50 for every entry below.
1. CC(c1c[nH]c(=O)c2cc(F)c(F)cc12)N(CCS(N)(=O)=O)C(=O)Nc1ccc(F)cc1 (single isomer, unassigned) [Compound 387]
2. CC(c1c[nH]c(=O)c2ccc(F)cc12)N(CCS(N)(=O)=O)C(=O)Nc1ccc(F)c(Cl)c1 (single isomer, unassigned) [Compound 382]
3. CC(c1c[nH]c(=O)c2c(F)c(F)ccc12)N(C)C(=O)Nc1ccc(F)c(C#N)c1 (single isomer, unassigned) [Compound 471]
4. CC(c1cn(C)c(=O)c2cc(F)c(F)cc12)N(CCCO)C(=O)Nc1ccc(F)c(Cl)c1 (single isomer, unassigned) [Compound 350]
5. CC(c1c[nH]c(=O)c2cc(F)c(F)cc12)N(C)C(=O)Nc1ccc(F)c(F)c1 (single isomer, unassigned) [Compound 409]
6. CC(c1cnc(OCc2nc[nH]n2)c2cc(F)c(F)cc12)N(C)C(=O)Nc1ccc(F)c(Cl)c1 (single isomer, unassigned) [Compound 363]
7. Cc1cc(NC(=O)N(C)C(C)c2c[nH]c(=O)c3c(F)c(F)ccc23)ccc1F (single isomer, unassigned) [Compound 440]

Data returned:
40 nM
16 nM
20 nM
3600 nM
13 nM
14 nM
540 nM

---

# System: HBV rcDNA
# protocol: HepDE19 assay with bDNA quantitation of HBV rcDNA
# Assay type: cell-based, hepatitis B virus
# condition: Hepatitis B virus, HepDE19, HepDE19 assay, inhibition of formation of rcDNA; read-out: DE-19bDNA EC50
pEC50: −log10 of the molar value.
Label 1 when pEC50 >= 5; otherwise -1.

Known results for compounds:
Data request: I'd appreciate it if you could say whether COc1ncc(CN(C)C(=O)Nc2ccc(F)c(Cl)c2)c2ccccc12 [Compound 2] has pEC50 at least equal to 5.
Data returned: 1

Data request: I'd appreciate it if you could say whether Cc1cc(NC(=O)N(C)Cc2c[nH]c(=O)c3ccccc23)ccc1F [Compound 5] has pEC50 at least equal to 5.
Data returned: 1

Data request: I'd appreciate it if you could say whether CCN(Cc1cnc(OCCO)c2ccccc12)C(=O)Nc1ccc(F)c(Cl)c1 [Compound 29] has pEC50 at least equal to 5.
Data returned: 1

Next:
Data request: I'd appreciate it if you could say whether CC(c1c[nH]c(=O)c2ccccc12)N(C[C@H]1CC[C@@H](O)CC1)C(=O)Nc1ccc(F)c(Cl)c1 (mixture of isomers) [Compound 225] has pEC50 at least equal to 5.
Data returned: 1

Data request: I'd appreciate it if you could say whether COc1ncc(CN(CCO)C(=O)Nc2ccc(F)c(Cl)c2)c2ccccc12 [Compound 21] has pEC50 at least equal to 5.
Data returned: -1
